# system-under-test: human DLL3 protein expressed on CHO-K1 recombinant cells (human DLL3 extracellular segment fused to EpCAM transmembrane and intracellular regions) (human) (UniProt Q9NYJ7)
# Sequence (Q9NYJ7 other isoform, or with tags, fused parts or gaps limits assumed): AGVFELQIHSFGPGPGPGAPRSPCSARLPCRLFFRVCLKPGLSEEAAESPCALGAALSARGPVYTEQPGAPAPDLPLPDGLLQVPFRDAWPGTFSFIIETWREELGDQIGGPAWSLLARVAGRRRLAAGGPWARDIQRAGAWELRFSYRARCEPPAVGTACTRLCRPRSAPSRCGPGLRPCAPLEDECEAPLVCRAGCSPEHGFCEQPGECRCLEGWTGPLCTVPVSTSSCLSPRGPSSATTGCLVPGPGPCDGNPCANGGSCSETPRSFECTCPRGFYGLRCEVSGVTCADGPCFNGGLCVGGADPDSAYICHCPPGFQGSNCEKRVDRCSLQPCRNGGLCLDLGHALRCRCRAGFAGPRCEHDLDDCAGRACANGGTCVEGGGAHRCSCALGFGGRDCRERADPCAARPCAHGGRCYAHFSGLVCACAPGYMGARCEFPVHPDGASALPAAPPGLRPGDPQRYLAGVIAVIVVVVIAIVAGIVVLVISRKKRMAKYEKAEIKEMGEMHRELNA
# assay-info: FACS, CHO-K1 hDLL3 cells, 0.0064 nM antibody

| binder | MFI |
| --- | --- |
| Hab015VL5VH5a-hFc (scFv, part only; not given: scFv linker and human IgG1 Fc, V domains shown, not shown: another chain or arm of the molecule; a dimerising Fc or GST; small tags and cut ends) VL: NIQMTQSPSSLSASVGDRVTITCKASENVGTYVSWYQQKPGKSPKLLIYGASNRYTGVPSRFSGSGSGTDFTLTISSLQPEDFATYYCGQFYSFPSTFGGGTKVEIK VH: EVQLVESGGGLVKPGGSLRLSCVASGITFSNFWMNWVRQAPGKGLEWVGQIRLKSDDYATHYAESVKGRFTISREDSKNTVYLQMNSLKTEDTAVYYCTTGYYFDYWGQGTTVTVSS | 166 MFI |
| Hab006VL4VH1-hFc (scFv, part only; not given: scFv linker and human IgG1 Fc, V domains shown, not shown: another chain or arm of the molecule; a dimerising Fc or GST; small tags and cut ends) VL: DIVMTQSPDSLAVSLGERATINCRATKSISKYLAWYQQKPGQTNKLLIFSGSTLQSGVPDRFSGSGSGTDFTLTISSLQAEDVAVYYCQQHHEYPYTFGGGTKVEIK VH: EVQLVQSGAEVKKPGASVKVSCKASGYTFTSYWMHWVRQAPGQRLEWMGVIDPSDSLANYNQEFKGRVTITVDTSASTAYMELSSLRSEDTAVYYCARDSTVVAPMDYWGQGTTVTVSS | 411 MFI |
